Measured values drawn from paper PMC3242765 for this set.

In this section, each of the compounds is paired with its reported SFV replication % left.
System: SFV-Rluc
Details: primary screening of chemical libraries; compounds tested at 50 µM
reported.property: SFV replication % left (%)

compound	system.name	value.reported
CC(C)NCC(O)c1ccccc1Cl.Cl.O (centres unmarked) [PC-051]	SFV-Rluc	63.7
NCCCS(=O)(=O)O [PC-090]	SFV-Rluc	118.7
O=C(O)Cc1ccccc1O [NC-050]	SFV-Rluc	7.3
COc1ccc2ccc(=O)oc2c1 [NC-124]	SFV-Rluc	53.2
Br.CC(Cc1ccc(O)cc1)NCC(O)c1cc(O)cc(O)c1 (centres unmarked) [PC-081]	SFV-Rluc	106.6
CC(C)(O)C(Cl)(Cl)Cl [PC-042]	SFV-Rluc	84.2
CC(=O)Nc1ccc(O)cc1 [PC001-]	SFV-Rluc	63.5
C[N+]1(C)[C@@H]2CC[C@H]1C[C@@H](OC(=O)C(CO)c1ccccc1)C2.O=[N+]([O-])[O-] (some centres unmarked) [PC-018]	SFV-Rluc	46.8
Oc1cc(O)c2c(c1)O[C@H](c1cc(O)c(O)c(O)c1)[C@H](O)C2 [NC-036]	SFV-Rluc	101.9
Cl.NCC(O)c1ccc(O)cc1 (centres unmarked) [PC-138]	SFV-Rluc	102.1
CNC1=Nc2ccc(Cl)cc2C(c2ccccc2)=[N+]([O-])C1 [PC-041]	SFV-Rluc	54.3

====

Tested on: SFV
Test: Viral yield analysis using a plaque assay
Format: cell-based, Semliki Forest virus (SFV)
Settings: BHK cells, MOI 0.01, 50 µM compound, 16 h; untreated control 1.4×10^9 PFU/ml
Some compounds, each annotated with its measured SFV yield.

compound	system.name	SFV yield
CCN(CC)c1ccc2cc(-c3nc4ccccc4n3C)c(=O)oc2c1	SFV	5.0×10^8 PFU/ml
O=C(O)c1ccc(O)c(O)c1	SFV	2.4×10^9 PFU/ml
CCN(CC)CCCC(C)Nc1ccnc2cc(Cl)ccc12 (stereo not drawn)	SFV	3.3×10^7 PFU/ml
COc1c2ccoc2cc2oc(=O)ccc12	SFV	1.2×10^8 PFU/ml
CN(C)CCCN1c2ccccc2Sc2cccnc21	SFV	4.0×10^8 PFU/ml
NC(=O)c1ncn([C@@H]2O[C@H](CO)[C@@H](O)[C@H]2O)n1	SFV	2.1×10^8 PFU/ml
N/C(CC(O)COc1cccc2ccccc12)=N/O (stereo not drawn)	SFV	9.2×10^7 PFU/ml
C#C[C@]1(O)CC[C@H]2[C@@H]3CCc4cc(O)ccc4[C@H]3CC[C@@]21C	SFV	9.0×10^8 PFU/ml
COc1cc(C2Oc3cc([C@H]4Oc5cc(O)cc(O)c5C(=O)[C@@H]4O)ccc3OC2CO)ccc1O (stereo partly drawn)	SFV	3.7×10^8 PFU/ml

====

System: SFV-Rluc
Structures can show the parent of a compound that is named as a salt.
reported.property: SFV replication % left (surviving fraction, remaining percentage of SFV replication) (%)

compound	value.reported
CC(C)(CO)[C@@H](O)C(=O)NCCC(=O)O [Calcium pantothenate]	67.9
COc1cc(-c2[o+]c3cc(O)cc(O[C@@H]4O[C@H](CO)[C@@H](O)[C@H](O)[C@H]4O)c3cc2O[C@@H]2O[C@H](CO)[C@@H](O)[C@H](O)[C@H]2O)cc(OC)c1O.[Cl-] [Malvin chloride]	15.4
CC[C@H]1CN2CCc3cc(OC)c(OC)cc3[C@@H]2C[C@@H]1C[C@H]1NCCc2cc(OC)c(OC)cc21 [Emetine dihydrochloride]	63.1

====

Measured SFV replication % left (surviving fraction, remaining percentage of SFV replication), listed per entry for reference.
Test system: SFV-Rluc
Where a name gives a salt, the structure may show the parent alone.
reported.property: SFV replication % left (surviving fraction, remaining percentage of SFV replication) (%)

compound	system.name	value.reported
CC(=O)Nc1ccccc1 [Acetanilide]	SFV-Rluc	57.3
COc1ccc(-c2cc(=O)c3c(O)cc(O)cc3o2)cc1	SFV-Rluc	78.1
CC(C)Cc1ccc(CC(=O)O)cc1	SFV-Rluc	102.2
N=C(N)NS(=O)(=O)c1ccc(N)cc1	SFV-Rluc	63.5
C=CCOc1ccccc1OCC(O)CNC(C)C (centres unmarked) [Oxprenolol hydrochloride]	SFV-Rluc	92.4
Oc1ccc(C(O)CNCCCCCCNCC(O)c2ccc(O)c(O)c2)cc1O (centres unmarked) [Hexoprenaline]	SFV-Rluc	124.9
CC(CN1c2ccccc2Sc2ccccc21)N(C)C.Cl (centres unmarked)	SFV-Rluc	48.8
C[C@](N)(Cc1ccc(O)c(O)c1)C(=O)O	SFV-Rluc	99.1
CC(C)NCC(O)c1ccc(NS(C)(=O)=O)cc1.Cl (centres unmarked)	SFV-Rluc	100.5
O=c1ccc2cc(O)c(O)cc2o1	SFV-Rluc	103.6
CCN(CC)c1ccc2cc(-c3nc4ccccc4[nH]3)c(=O)oc2c1	SFV-Rluc	37.3

====

Test system: SFV-Rluc
Counter-ions that a name gives are not always drawn.
Friendly reminder: SFV replication % left (surviving fraction, remaining percentage of SFV replication) below 90% is YES, at or above is NO.

compound	assigned.label
Cc1nnc(NS(=O)(=O)c2ccc(N)cc2)s1 [Sulfamethizole]	NO
COc1ccc(Cc2nccc3cc(OC)c(OC)cc23)cc1OC	NO
C[C@@H]1O[C@@H](OC[C@H]2O[C@@H](Oc3c(-c4ccc(O)c(O)c4)oc4cc(O)cc(O)c4c3=O)[C@H](O)[C@@H](O)[C@@H]2O)[C@H](O)[C@H](O)[C@H]1O	YES
Cc1cnc(NS(=O)(=O)c2ccc(N)cc2)nc1	NO
CC(C)(C)NCC(O)COc1cccc2c1CC(O)C(O)C2 (stereo not drawn)	YES
Oc1cc(O)c2cc(O)c(-c3ccc(O)c(O)c3)[o+]c2c1 [Cyanidin chloride]	YES
O=C(O)c1c(O)cccc1O [2,6-Dihydroxybenzoic acid]	NO
O=C1c2c(O)cccc2Cc2cccc(O)c21 [1,8-Dihydroxyanthrone]	YES
CN1C(=O)NC(=O)C(C)(C2=CCCCC2)C1=O (stereo not drawn) [Hexobarbital]	NO
O=C(O)c1ccc(O)c(O)c1 [3,4-Dihydroxybenzoic acid]	NO
COc1c2ccoc2cc2oc(=O)ccc12	YES
CCCCNCC(O)c1ccc(O)cc1 (stereo not drawn)	YES
COc1ccc2cc([C@H](C)C(=O)O)ccc2c1	NO
CC(=O)c1ccc(O)cc1 [4-Hydroxyacetophenone]	YES
CC(C)NCC(O)c1ccc(NS(C)(=O)=O)cc1 (stereo not drawn) [Sotalol hydrochloride]	NO

====

Structures can show the parent of a compound that is named as a salt.
Dear all, this message contains SFV replication % left (surviving fraction, remaining percentage of SFV replication) results, target or system SFV-Rluc.
reported.property: SFV replication % left (surviving fraction, remaining percentage of SFV replication) (%)

compound	readout.units	value.reported
Cc1cc(=O)oc2cc(O)ccc12 [4-Methylumbelliferone]	%	90.9
Cc1cc(N)c2ccccc2[n+]1CCCCCCCCCC[n+]1c(C)cc(N)c2ccccc21 [Dequalinium chloride]	%	62.5
Oc1cccc(O)c1 [Resorcinol]	%	67.1
CCC1(c2ccccc2)C(=O)NC(=O)NC1=O [Phenobarbital]	%	58.6
Oc1ccccc1O	%	58.4
O=C1NC2NC(=O)NC2N1 (stereo not shown) [Acetyleneurea [acetylene carbamide]]	%	55.2
CCC(CN(C)C)(CN(C)C)OC(=O)c1ccccc1.Cl [Amydricaine hydrochloride]	%	43.4
CC(CN(C)C)CN1c2ccccc2Sc2ccccc21.CC(CN(C)C)CN1c2ccccc2Sc2ccccc21.O=C(O)C(O)C(O)C(=O)O (stereo not shown) [Trimeprazine tartrate]	%	120.4
Cc1cccc(Nc2ccccc2C(=O)O)c1C	%	103.5
CC(=O)OCC(=O)[C@@]1(O)CC[C@H]2[C@@H]3CCC4=CC(=O)CC[C@]4(C)[C@H]3[C@@H](O)C[C@@]21C [Hydrocortisone acetate]	%	116.8
CC12CCC(CC1=O)C2(C)C (racemic) [DL-Camphon, Campher (synth.)]	%	83.9
COC(=O)c1ccc(O)cc1 [Methyl p-hydroxybenzoate]	%	69.3
O=C(c1ccccc1)c1cc2c(ccc3ccccc32)oc1=O	%	39.9
CC(C(=O)[O-])c1cccc(Oc2ccccc2)c1.CC(C(=O)[O-])c1cccc(Oc2ccccc2)c1.[Ca+2] (stereo not shown) [Fenoprofen calcium salt]	%	87.6
CCN(CC)CCNC(=O)c1ccc(N)cc1.Cl	%	89.0
COc1cc(C=O)ccc1O	%	47.9
CCC(C)NCC(O)c1ccc2c(c1)CCCC2 (stereo not shown)	%	73.1
CCCCNc1ccc(C(=O)OCCN(C)C)cc1 [p-Butylaminobenzoyldimethylaminoethanol]	%	45.4
O=C(N[C@H](CO)[C@H](O)c1ccc([N+](=O)[O-])cc1)C(Cl)Cl	%	73.8
Oc1c(I)cc(Cl)c2cccnc12	%	71.9
CCCCOC(=O)c1ccc(N)cc1 [Butyl 4-Aminobenzoate]	%	76.6
Cc1cc(NS(=O)(=O)c2ccc(N)cc2)no1	%	77.5
O=C(Oc1ccccc1)c1ccccc1O [Phenyl salicylate]	%	118.2
COc1ccc(C(=O)Cc2c(CCN(C)C)cc3c(c2OC)OCO3)c(C(=O)O)c1OC	%	118.3
Nc1ccc(C(=O)O)cc1	%	56.5
Cc1cc(C)nc(NS(=O)(=O)c2ccc(N)cc2)n1	%	91.7
Cc1ccccc1OCC(O)CO (stereo not shown)	%	79.2
CC(C)[N+](C)(CCOC(=O)C1c2ccccc2Oc2ccccc21)C(C)C [Propantheline bromide]	%	77.0
CC(N)C(O)c1ccc(O)c(O)c1 (stereo not shown) [Nordefrin hydrochloride]	%	118.0
CN1CCC(CN2c3ccccc3Sc3ccccc32)C1 (stereo not shown)	%	22.5
COc1cc(NS(=O)(=O)c2ccc(N)cc2)nc(OC)n1	%	102.4
O.O.O=c1c(O)c(-c2ccc(O)cc2O)oc2cc(O)cc(O)c12 [Morin dihydrate]	%	82.9
CNC(C)(C)Cc1ccccc1 [Mephentermine sulfate]	%	81.8
NC(=O)c1cccnc1 [Nicotinamide]	%	116.9
C#CCN(C)[C@H](C)Cc1ccccc1 [Selegiline hydrochloride]	%	57.0
CC(C)(C)NCC(O)COc1ccccc1C#N (stereo not shown)	%	40.7
Cc1cc(C(C)(C)C)cc(C)c1CC1=NCCN1	%	94.2
CCCCNC(=O)c1ccc(Cl)cc1O [Buclosamide]	%	49.6
Cc1c(N)c(=O)n(-c2ccccc2)n1C [4-Aminoantipyrine [ampyrone]]	%	51.6
CCN1C(=O)CC(=O)N(CC)C1=S	%	75.7
